Target: EGFR L858R (Homo sapiens (Human), UniProt P00533, L858R)
Sequence (P00533 25-1210 L858R): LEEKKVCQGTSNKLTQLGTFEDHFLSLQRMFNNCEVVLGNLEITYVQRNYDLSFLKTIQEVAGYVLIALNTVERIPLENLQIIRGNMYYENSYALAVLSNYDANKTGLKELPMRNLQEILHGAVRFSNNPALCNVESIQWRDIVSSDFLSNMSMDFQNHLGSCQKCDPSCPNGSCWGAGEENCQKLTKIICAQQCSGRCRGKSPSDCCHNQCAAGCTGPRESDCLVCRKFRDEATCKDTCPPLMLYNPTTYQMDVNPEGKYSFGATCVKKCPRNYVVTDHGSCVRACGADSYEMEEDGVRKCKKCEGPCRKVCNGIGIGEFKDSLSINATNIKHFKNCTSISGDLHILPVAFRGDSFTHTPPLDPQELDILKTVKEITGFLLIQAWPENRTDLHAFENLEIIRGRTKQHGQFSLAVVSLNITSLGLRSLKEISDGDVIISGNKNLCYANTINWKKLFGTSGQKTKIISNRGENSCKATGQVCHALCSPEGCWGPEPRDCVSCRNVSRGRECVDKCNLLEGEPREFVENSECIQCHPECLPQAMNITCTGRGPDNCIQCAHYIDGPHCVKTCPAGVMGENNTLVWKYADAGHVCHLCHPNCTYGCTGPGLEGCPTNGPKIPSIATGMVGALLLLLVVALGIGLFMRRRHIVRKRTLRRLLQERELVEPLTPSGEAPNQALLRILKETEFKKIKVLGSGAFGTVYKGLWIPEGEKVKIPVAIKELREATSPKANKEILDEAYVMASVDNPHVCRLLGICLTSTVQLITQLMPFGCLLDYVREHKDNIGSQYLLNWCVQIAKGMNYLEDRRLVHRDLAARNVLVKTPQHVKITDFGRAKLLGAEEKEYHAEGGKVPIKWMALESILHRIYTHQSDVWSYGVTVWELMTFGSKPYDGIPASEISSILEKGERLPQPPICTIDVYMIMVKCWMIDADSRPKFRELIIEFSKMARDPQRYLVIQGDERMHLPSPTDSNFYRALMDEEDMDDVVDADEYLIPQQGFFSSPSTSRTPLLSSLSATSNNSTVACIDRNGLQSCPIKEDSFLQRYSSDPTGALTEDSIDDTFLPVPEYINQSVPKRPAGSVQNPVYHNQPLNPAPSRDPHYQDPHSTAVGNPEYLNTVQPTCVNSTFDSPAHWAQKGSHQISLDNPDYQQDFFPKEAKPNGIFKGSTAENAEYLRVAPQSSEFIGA
Assay: Biochemical EGFR inhibition assay, EGFR L858R
Settings: Caliper mobility shift; 1.0 mM ATP or ATP Km; read-out: Enz EGFR_L858R IC50
assay.readout: IC50 (nM)

Use these answered entries as a reference point.
COc1cc2ncnc(-c3cn(C)nc3-c3c(F)cccc3F)c2cc1OC(=O)N1CCOC[C@@H]1C    8.3
COc1cc2ncnc(-c3cn(C)nc3-c3ccccc3)c2cc1-c1cccc2cn(C)nc12    5.6
COc1cc2ncnc(-c3cn(C)nc3-c3c(F)cccc3F)c2cc1NC(=O)[C@@]12C[C@@H]1CN(C)C2    145
COc1cc2ncnc(-c3cn(C)nc3-c3ccccc3)c2cc1NC(=O)C12CC(C1)C2    3.3
COc1cc2ncnc(-c3cn(C)nc3-c3ccccc3)c2cc1-c1cccc(C(=O)NC2CC2)c1    3.2

P. COc1cc2ncnc(-c3cn(C)nc3-c3ccccc3)c2nc1NC(=O)c1cccc(F)c1
Q. COc1cc2ncnc(-c3cn(CC(F)F)nc3-c3ccccc3)c2nc1NC(=O)[C@]12C[C@H]1CN(C)C2 (single isomer, unassigned)
Which of the two gives a bigger number for IC50: P or Q ? Give the label of your selection.
P

###

Biological target: pEGFR (Tyr1068) in PC-9 cells (Ex19Del) (Homo sapiens (Human), UniProt P00533, DEL746-750)
Sequence (P00533 other isoform, or with tags, fused parts or gaps del 746-750): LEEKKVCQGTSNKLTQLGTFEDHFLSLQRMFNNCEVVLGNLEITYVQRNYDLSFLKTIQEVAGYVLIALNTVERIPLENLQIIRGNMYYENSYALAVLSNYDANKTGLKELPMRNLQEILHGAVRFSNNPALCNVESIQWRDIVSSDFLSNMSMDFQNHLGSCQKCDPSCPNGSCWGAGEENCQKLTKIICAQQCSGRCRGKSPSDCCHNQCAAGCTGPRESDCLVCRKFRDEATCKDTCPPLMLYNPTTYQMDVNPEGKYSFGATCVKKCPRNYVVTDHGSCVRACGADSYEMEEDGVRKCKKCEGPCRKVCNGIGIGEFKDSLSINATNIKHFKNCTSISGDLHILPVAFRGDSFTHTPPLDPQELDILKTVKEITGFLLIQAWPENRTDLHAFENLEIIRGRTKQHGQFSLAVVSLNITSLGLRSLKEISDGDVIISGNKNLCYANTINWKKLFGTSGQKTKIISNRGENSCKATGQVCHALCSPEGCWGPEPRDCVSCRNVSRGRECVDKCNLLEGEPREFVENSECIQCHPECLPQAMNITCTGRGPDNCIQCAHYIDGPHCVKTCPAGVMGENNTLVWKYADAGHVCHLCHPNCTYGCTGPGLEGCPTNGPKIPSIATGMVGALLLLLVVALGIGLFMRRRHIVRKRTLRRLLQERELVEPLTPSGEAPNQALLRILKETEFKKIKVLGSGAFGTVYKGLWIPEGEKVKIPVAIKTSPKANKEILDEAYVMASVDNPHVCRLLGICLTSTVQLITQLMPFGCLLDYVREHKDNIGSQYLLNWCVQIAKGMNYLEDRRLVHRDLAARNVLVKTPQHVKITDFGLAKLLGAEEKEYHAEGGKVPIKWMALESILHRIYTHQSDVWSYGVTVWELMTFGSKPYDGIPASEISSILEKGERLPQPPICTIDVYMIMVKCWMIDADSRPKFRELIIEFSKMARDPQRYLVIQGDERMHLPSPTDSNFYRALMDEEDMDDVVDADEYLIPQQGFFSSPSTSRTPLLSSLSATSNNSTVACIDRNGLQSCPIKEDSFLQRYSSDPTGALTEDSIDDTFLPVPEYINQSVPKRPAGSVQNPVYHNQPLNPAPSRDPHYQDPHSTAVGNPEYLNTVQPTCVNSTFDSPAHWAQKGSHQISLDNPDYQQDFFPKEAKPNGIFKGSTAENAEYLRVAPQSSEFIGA
Experiment: PC-9 pEGFR AlphaLISA assay
Details: 4 hours incubation, p-EGFR (Tyr1068) AlphaLISA, read-out: Ext pEGFR_PC-9 Ex19Del IC50
assay.readout: IC50 (nM)

COc1cc2ncnc(-c3cn(C)nc3-c3ccc(F)cc3)c2cc1NC(=O)c1cn(C)nc1C    3.5
CCOc1cc2ncnc(-c3cn(C)nc3-c3ccccc3)c2cc1Cn1ncnc1C    11.6
COc1cc2ncnc(-c3cn(C)nc3-c3ccccc3)c2cc1OC(=O)N1CCOC[C@H]1C    7.9
CCn1cc(-c2ncnc3cc(OC)c(NC(=O)[C@@]45COC[C@@H]4C5)nc23)c(-c2ccccc2)n1 (single isomer, unassigned)    0.4
Cn1cc(-c2ncnc3cc(C(F)(F)F)c(NC(=O)C45COCC4C5)nc23)c(-c2ccccc2)n1 (stereo not drawn) [Example 483]    1710

a. COc1cc2ncnc(-c3cn(C)nc3-c3ccccc3)c2cc1NC(=O)N1C[C@H](C)N(C)C[C@@H]1C
b. CCOc1cc2ncnc(-c3cn(C)nc3-c3ccccc3)c2nc1NC(=O)[C@@]12COC[C@@H]1C2 (single isomer, unassigned)
Could you check which of a and b has a smaller value for IC50? Give the label of your selection.
b
(b: 1.4 nM, a: 5.4 nM)

I. COc1cc2ncnc(-c3cn(C)nc3-c3ccccc3)c2cc1NC(=O)c1cncc(C)c1
II. CN(C)C12CC(C(=O)Nc3nc4c(-c5cn(C)nc5-c5ccc(F)cc5)ncnc4cc3OC(F)F)(C1)C2
Could you check which of I and II has a smaller value for IC50? Give the label of your selection.
I
(I: 5.3 nM, II: 31.2 nM)

a. COc1cc2ncnc(-c3cn(C)nc3-c3ccccc3)c2cc1NC(=O)N1CCOC(C)(C)C1
b. CCOc1cc2ncnc(-c3cn(C)nc3-c3ccccc3)c2cc1N1CCN(C)C[C@@H]1C
Could you check which of a and b has a smaller value for IC50? Give the label of your selection.
b

P. COc1cc2ncnc(-c3cn(C)nc3-c3ccccc3)c2cc1NC(=O)c1ccc(C(F)F)nc1
Q. CCC(=O)Nc1cc2c(-c3cn(C)nc3-c3ccccc3)ncnc2cc1-c1ncccn1
R. CCOc1cc2ncnc(-c3cn(C)nc3-c3ccccc3)c2cc1OC1CCN(C(=O)CC)CC1
S. CCOc1cc2ncnc(-c3cn(CC)nc3-c3ccccc3)c2cc1N1CCOCC1
// sort entries: IC50, high to low Reply with the item labels sorted in the order that was asked for.
P, R, Q, S
(P: 4.9 nM, R: 2.8 nM, Q: 1.9 nM, S: 1.2 nM)

###

Biological target: EGFR (d746-750) (Homo sapiens (Human), UniProt P00533, DEL746-750)
Sequence (P00533 other isoform, or with tags, fused parts or gaps del 1-694/del 746-750 limits assumed): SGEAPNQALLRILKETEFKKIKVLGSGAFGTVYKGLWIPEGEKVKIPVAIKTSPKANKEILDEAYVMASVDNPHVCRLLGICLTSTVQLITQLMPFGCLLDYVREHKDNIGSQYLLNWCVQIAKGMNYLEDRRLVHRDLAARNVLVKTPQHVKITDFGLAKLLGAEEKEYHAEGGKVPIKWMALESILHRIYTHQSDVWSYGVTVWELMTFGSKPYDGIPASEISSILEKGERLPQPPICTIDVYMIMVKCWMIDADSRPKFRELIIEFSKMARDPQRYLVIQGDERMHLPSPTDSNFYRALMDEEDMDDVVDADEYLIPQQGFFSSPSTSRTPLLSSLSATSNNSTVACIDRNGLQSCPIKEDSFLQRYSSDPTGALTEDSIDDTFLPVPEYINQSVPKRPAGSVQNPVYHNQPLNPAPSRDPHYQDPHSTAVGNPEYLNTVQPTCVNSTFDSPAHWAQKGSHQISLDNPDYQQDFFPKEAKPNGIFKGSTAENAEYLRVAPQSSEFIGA
Assay: Biochemical EGFR inhibition assay, EGFR (d746-750)
Details: Caliper mobility shift; 1.0 mM ATP or ATP Km; read-out: Enz EGFR_Exon19-del746-750 IC50
pIC50: −log10 of the molar value.
assay.readout: pIC50

Use these answered entries as a reference point.
COc1cc2ncnc(-c3cn(C)nc3-c3ccccc3)c2cc1NC(=O)c1c(C)cccc1F [Example 201]    8.85
CCOc1cc2ncnc(-c3cn(C)nc3-c3ccccc3)c2nc1NC(=O)[C@]12COC[C@H]1C2 (single isomer, unassigned) [Example 379]    9.15

I. COc1cc2ncnc(-c3cn(C)nc3-c3ccccc3)c2cc1NC(=O)C(C)F (stereo not shown) [Example 221]
II. CCC(=O)Nc1cc2c(-c3cnn(CC(F)F)c3-c3ccccc3)ncnc2cc1OC [Example 500]
Which of the two gives a bigger number for pIC50: I or II ? Give the label of your selection.
I

###

Molecular target: EGFR L858R (Homo sapiens (Human), UniProt P00533, L858R)
Assay: Biochemical EGFR inhibition assay, EGFR L858R
Conditions: Caliper mobility shift; 1.0 mM ATP or ATP Km; read-out: Enz EGFR_L858R IC50
pIC50: −log10 of the molar value.
assay.readout: pIC50

COc1cc2ncnc(-c3cn(C)nc3-c3ccccc3)c2nc1NC(=O)[C@]12COC[C@H]1C2 (single isomer, unassigned)    8.72
COc1cc2ncnc(-c3cn(C)nc3-c3ccccc3)c2cc1NC(=O)c1ccc(C2CC2)nc1    8.46
COc1cc2ncnc(-c3cn(C)nc3-c3ccccc3)c2cc1N    8.89
COc1cc2ncnc(-c3cn(C)nc3-c3ccccc3)c2cc1[C@@H]1CN(C)CCO1    7.67
COc1cc2ncnc(-c3cn(C)nc3-c3ccccc3)c2cc1NC(=O)C1C2COCC21 (stereo not shown)    8.54

a. COc1cc2ncnc(-c3cn(CC(F)F)nc3-c3ccccc3)c2nc1NC(=O)[C@@]12C[C@@H]1CN(C)C2 (single isomer, unassigned)
b. COc1cc2ncnc(-c3cn(C4COC4)nc3-c3ccccc3)c2cc1OC(=O)N1CCOC[C@@H]1C
Which of the two gives a bigger number for pIC50: a or b ? Give the label of your selection.
a
(a: 8.64, b: 8.20)

###

Target: EGFR (d746-750) (Homo sapiens (Human), UniProt P00533, DEL746-750)
Assay: Biochemical EGFR inhibition assay, EGFR (d746-750)
Conditions: Caliper mobility shift; 1.0 mM ATP or ATP Km; read-out: Enz EGFR_Exon19-del746-750 IC50
pIC50: −log10 of the molar value.
assay.readout: pIC50

Use these answered entries as a reference point.
CCOc1cc2ncnc(-c3cn(C)nc3-c3ccccc3)c2nc1N1CC2(COC2)C1 [Example 175]    9.00
COc1cc2ncnc(-c3cn(C)nc3-c3ccccc3)c2nc1O[C@H](C)c1nnc(C)o1 [Example 38]    8.17

I. Cn1cc(-c2ncnc3cc(O)c(NC(=O)C4(C(F)(F)F)CC4)nc23)c(-c2ccccc2)n1 [Example 464]
II. COc1cc2ncnc(-c3cn(C)nc3-c3ccccc3)c2cc1O[C@@H]1CCOC1 [Example 12]
Which of the two gives a bigger number for pIC50: I or II ? Give the label of your selection.
I
(I: 9.52, II: 8.89)

P. COc1cc2ncnc(-c3cn(C)nc3-c3ccccc3F)c2cc1OC(=O)N1CCOC[C@@H]1C [Example 74]
Q. C[C@@H](O)c1cc2c(-c3cn(CC(F)F)nc3-c3ccccc3)ncnc2cc1-c1cnn(C)c1 (single isomer, unassigned) [Example 445]
R. CCc1nc2c(-c3cn(C)nc3-c3ccccc3)ncnc2cc1OC [Example 136]
// sort entries: pIC50, high to low Reply with the item labels sorted in the order that was asked for.
R, Q, P

###

Target: EGFR (d746-750) (Homo sapiens (Human), UniProt P00533, DEL746-750)
Assay: Biochemical EGFR inhibition assay, EGFR (d746-750)
Conditions: Caliper mobility shift; 1.0 mM ATP or ATP Km; read-out: Enz EGFR_Exon19-del746-750 IC50
assay.readout: IC50 (nM)

Use these answered entries as a reference point.
Cn1cc(-c2ncnc3cc(C(F)(F)F)c(NC(=O)C45COCC4C5)nc23)c(-c2ccccc2)n1 (stereo not shown) [Example 488]    126
COc1cc2ncnc(-c3cn(C)nc3-c3ccc(F)cc3)c2nc1NC(=O)[C@]12C[C@H]1CN(C)C2 (single isomer, unassigned)    1.3

1. COc1cc2ncnc(-c3cn(C)nc3-c3ccc(F)cc3)c2nc1NC(=O)[C@@]12COC[C@@H]1C2 (single isomer, unassigned)
2. CC(C)Oc1cc2ncnc(-c3cn(C)nc3-c3ccccc3)c2cc1OC(C)C
3. COc1cc2ncnc(-c3cn(C)nc3-c3ccccc3)c2cc1NC(=O)C1(C)CCCO1 (stereo not shown)
4. CN(C)C12CC(C(=O)Nc3nc4c(-c5cn(C)nc5-c5ccccc5F)ncnc4cc3OC(F)F)(C1)C2
Order the entries by their reported IC50, beginning at the minimum. Reply with the item labels sorted in the order that was asked for.
1, 2, 3, 4
(1: 0.6 nM, 2: 1.6 nM, 3: 3 nM, 4: 7.4 nM)
